Reported solubility kinetic values are given for each entry in this list.
- particulars: buffer; pH 7.4; 200.0 µM
Number only, in µg/mL; omit the unit.

Exam item: Record request: solubility kinetic value, item Cc1c(C)c(C)c(CN2CCCC2)c(C)c1C
Marked response: 29.4

Exam item: Same for Cc1ccccc1NC(=S)N(Cc1ccccc1)Cc1cccnc1
Marked response: 43.9

Exam item: Queued: COc1cc(C(F)(F)F)ccc1C(=O)NCCc1ccco1
Marked response: 42.9

Exam item: Next compound: COc1ccccc1C(=O)Nc1ccc2c(C)cc(=O)oc2c1
Marked response: 1.3

***
Exam item: Look up solubility kinetic: Cc1ccc(OCCNC(=O)CCc2ccccc2)cc1C
Marked response: 12.9

###

Reported solubility kinetic values for the following compounds.
- particulars: buffer; pH 7.4; 200.0 µM

Exam item: Quick check: solubility kinetic of O=C(NC1CCCCC1)C1CC(=O)N(Cc2ccccc2)C1 (configuration not stated) ?
Marked response: > 45.1 µg/mL

Exam item: Cc1cc(NC(=O)C2CC(=O)N(c3ccccc3C)C2)no1 (configuration not stated) , same question.
Marked response: > 44.9 µg/mL

Exam item: Moving on to O=C(NC1CCN(Cc2ccccc2)CC1)c1ccccc1
Marked response: > 44.2 µg/mL

Exam item: Cool, now O=[N+]([O-])c1ccccc1S(=O)(=O)Nc1cccc(S(=O)(=O)N2CCCC2)c1
Marked response: > 61.7 µg/mL

Exam item: Moving on to the next compound: O=C1OCCC1Sc1nnc(-c2ccc3c(c2)OCO3)o1 (configuration not stated)
Marked response: > 45.9 µg/mL

Exam item: Try this compound next: CC(NC(=O)CCNC(=O)c1ccco1)c1ccccc1 (configuration not stated)
Marked response: > 42.9 µg/mL

###

Some molecules, each annotated with its measured solubility kinetic.
- particulars: buffer; pH 7.4; 200.0 µM

# annotated cases, reported solubility kinetic shown
Exam item: Please report the recorded solubility kinetic for NC(=O)c1ccccc1N=Cc1cccnc1 .
Marked response: > 33.8 µg/mL

Exam item: Repeat with O=C(CN1CCCCC1)NC(=O)Nc1ccccc1F
Marked response: > 41.9 µg/mL

Would you kindly look at the next entry?
Exam item: So what's the measured solubility kinetic for this one? O=C(CCN1C(=O)C2CC=CCC2C1=O)NC1CCCCC1 (stereo not drawn)
Marked response: > 45.7 µg/mL

###

This listing pairs compounds with measured solubility kinetic.
- particulars: buffer; pH 7.4; 200.0 µM

Exam item: May I ask what solubility kinetic has been recorded for Cc1ccc(C(=O)N(C)CC(=O)Nc2ccc(F)c(F)c2F)o1 ?
Marked response: > 48.9 µg/mL

Exam item: Next compound: O=C1CC(N2CCOCC2)C(=O)N1c1ccc(Cl)cc1 (stereo unspecified)
Marked response: > 44.2 µg/mL

Exam item: What do you have for CC1CN(c2ccc([N+](=O)[O-])nc2)CC(C)O1 (stereo unspecified) ?
Marked response: > 35.6 µg/mL

Exam item: Ok, now Cc1ccc2c(c1)c1c3n2CCNC3CCC1.Cl (stereo unspecified)
Marked response: > 39.4 µg/mL

Exam item: Cool, now COCCCNC(=S)N1CCC(NC(=O)c2ccco2)CC1
Marked response: > 48.8 µg/mL

Exam item: Queued: CCn1c(-c2ccc[nH]c2=O)nc2ccccc21
Marked response: > 35.9 µg/mL

Exam item: Also need Cc1ccccc1NC(=O)NC1CCS(=O)(=O)C1 (stereo unspecified) , thanks.
Marked response: > 40.2 µg/mL

Exam item: What would you report for CC(C)(C)NC(=O)CSc1nc(N)cc(=O)[nH]1 ?
Marked response: > 38.4 µg/mL

Exam item: CC(=O)c1csc(COc2cc(Cl)cc(Cl)c2)n1 ?
Marked response: < 0.6 µg/mL

Exam item: Okay, and CCCCNC(=O)CC1NCCNC1=O (stereo unspecified) ?
Marked response: > 32 µg/mL

New cases:
Exam item: Endpoint output: solubility kinetic of Cc1ccc[n+](CC(=O)Nc2cccc(Cl)c2)c1.[Cl-] . Value?
Marked response: > 44.6 µg/mL

Exam item: Entry Cc1cc(Nc2ccc(Br)cc2)nc2ccccc12 please
Marked response: < 0.3 µg/mL

Exam item: Next: Cc1csc(NC(=O)c2ccccc2)n1
Marked response: > 32.7 µg/mL

Exam item: And COC(=O)c1ccccc1NC(=O)c1ccc[nH+]c1.[Cl-] ?
Marked response: > 43.9 µg/mL

Exam item: Consider next the compound CC(=O)c1sc(NC(=O)c2ccc(C(C)(C)C)cc2)nc1C in the same way.
Marked response: < 0.3 µg/mL

Exam item: And the next one, CC(C)(C)C(=O)N(Cc1ccc(Cl)cc1)c1cnccn1 ?
Marked response: > 45.6 µg/mL

// data source = PubChem BioAssay AID1996
